The values you see were collected from ChEMBL document CHEMBL1201862.

Listed next: entries and their corresponding GI50.
- Tested on: CCRF-CEM
- test name: NCI tumour cell line growth inhibition, 48 h
Activity calls are given as the source filed them. Rule as the data show it: active = GI50 up to about 1.1 µM and inactive = higher.

# compound, measured target, GI50
measured = [
    ("CSc1nc2cc(S(=O)(=O)N3CCCCC3)ccc2s1", "CCRF-CEM", "> 100 µM (inactive)"),
    ("COc1ccc(-c2c(-c3ccccc3)c(C)nc3[nH]c(=S)[nH]c(=S)c23)cc1OC", "CCRF-CEM", "24.7 µM (inactive)"),
    ("SC1=C2CCCCCC2=NC2(CCCCCC2)S1", "CCRF-CEM", "33.6 µM (inactive)"),
    ("O=S(=O)(N/C(=N\\O)Nc1ccc(Cl)cc1)c1cc2ccccc2o1", "CCRF-CEM", "22.1 µM (inactive)"),
    ("COC(=O)C1C2C=CC(C2)C1(C(=O)OC)[S+]([O-])CC12CCC(CC1O)C2(C)C (stereo not given)", "CCRF-CEM", "> 100 µM (inactive)"),
    ("COc1nc2c(c(=O)[nH]1)N=C(c1ccc(Cl)cc1)CC(c1ccccc1)N2 (stereo not given)", "CCRF-CEM", "19.1 µM (inactive)"),
    ("COc1cc(OC)c(OC)cc1/C=C\\c1ccnc2ccccc12", "CCRF-CEM", "1.4 µM (inactive)"),
    ("CCSc1nnc(CSc2nc(-c3ccccc3)c(-c3ccccc3)[nH]2)n1-c1ccccc1", "CCRF-CEM", "17 µM (inactive)"),
    ("Cc1cccc(C)c1NC(=O)CCc1nnc2s/c(=C\\c3ccc(N(C)C)cc3)c(=O)n12", "CCRF-CEM", "38.6 µM (inactive)"),
    ("CC(=O)OC[C@]12CCC3[C@@]4(C)CCCC(C)(C)C4CC[C@@]3(C)C1CC(C1=CC(=O)OC1O)O2 (stereo not given in full)", "CCRF-CEM", "0.271 µM (active)"),
]
